Data origin: patent US11578055B2

Property: pIC50; scope: individual molecules
Test system: full length PD1 (amino acids 1-288) fused to Firefly Luciferase
Assay: Dox Induced PD1-FL-Gluc Assay
Format: cell-based
Conditions: 24 hr, 293FRT/TO; read-out: 24 hr Dox Inducible PD1FLFluc 293FRT/TO: Mean IC50
pIC50: −log10 of the molar value. Structures can show the parent of a compound that is named as a salt.

# molecule, pIC50
rows = [
    ("C=C1CN(S(=O)(=O)c2ccc(C)cc2)CCCN(CC2CCCCC2)CCCN(S(=O)(=O)c2ccc(C)cc2)C1", 6.09),
    ("C=C1CN(S(=O)(=O)c2ccc(N(C)C)cc2)CCCN(CC2CCCCC2)CCCN(S(=O)(=O)N2CCN(c3ccccc3)CC2)C1", 6.50),
    ("CN(C)c1ccc(S(=O)(=O)N2CCCN(CC3CCCCC3)CCCN(S(=O)(=O)N3CCC(c4ccccc4)CC3)CC3(CC3)C2)cc1", 6.23),
    ("C[C@H]1CN(S(=O)(=O)c2ccc(N(C)C)cc2)CCCN(CC2CCCCC2)CCCN(S(=O)(=O)N2CCC(c3ccccc3)CC2)C1", 6.47),
    ("Cc1ccc(S(=O)(=O)N2CCCN(CC3CCCCC3)CCCN(S(=O)(=O)c3ccc(N(C)C)cc3)CC3(CC3)C2)cc1 [A11, hydrochloride]", 6.06),
    ("C=C1CN(S(=O)(=O)c2c(F)cc(N(C)C)cc2F)CCCN(CC2CCCCC2)CCCN(S(=O)(=O)N2CCC(c3ccccc3)CC2)C1", 6.37),
    ("Cc1ccc(S(=O)(=O)N2CCCN(CC3CCCCC3)CCCN(S(=O)(=O)c3ccc(N(C)C)cc3)CCC2)cc1", 5.91),
    ("CN(C)c1ccc(S(=O)(=O)N2CCCN(CC3CCCCC3)CCCN(S(=O)(=O)N3CCC(c4ccccc4)CC3)C/C(=N/O)C2)cc1", 6.59),
    ("C=C1CN(S(=O)(=O)c2ccc(N(C)C)cc2)CCCN(CC2CCCCC2)CCCN(S(=O)(=O)N2CCC(c3ccccc3)CC2)C1 [A35, hydrochloride]", 6.61),
    ("C=C1CN(S(=O)(=O)c2ccc(N(C)C)cc2)CCCN(CC2CCCCC2)CCCN(S(=O)(=O)N2CCc3ccccc3C2)C1", 7.13),
]
